# SYSTEM_UNDER_TEST: Protein cereblon/Tyrosine-protein phosphatase non-receptor type 1 (Homo sapiens, UniProt P18031+Q96SW2)
# Sequence (P18031 whole entry, looked up): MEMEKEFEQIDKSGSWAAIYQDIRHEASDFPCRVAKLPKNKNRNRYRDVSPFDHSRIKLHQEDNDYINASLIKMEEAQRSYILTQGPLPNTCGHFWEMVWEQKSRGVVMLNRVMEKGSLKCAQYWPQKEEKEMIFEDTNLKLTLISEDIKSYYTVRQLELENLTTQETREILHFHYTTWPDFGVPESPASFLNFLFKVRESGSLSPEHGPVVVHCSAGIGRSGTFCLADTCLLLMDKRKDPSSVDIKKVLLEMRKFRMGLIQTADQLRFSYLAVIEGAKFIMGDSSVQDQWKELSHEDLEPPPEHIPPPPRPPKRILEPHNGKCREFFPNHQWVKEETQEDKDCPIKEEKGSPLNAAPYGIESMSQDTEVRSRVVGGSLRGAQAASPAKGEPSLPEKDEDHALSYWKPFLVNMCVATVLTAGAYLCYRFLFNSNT
# Sequence (Q96SW2 whole entry, looked up): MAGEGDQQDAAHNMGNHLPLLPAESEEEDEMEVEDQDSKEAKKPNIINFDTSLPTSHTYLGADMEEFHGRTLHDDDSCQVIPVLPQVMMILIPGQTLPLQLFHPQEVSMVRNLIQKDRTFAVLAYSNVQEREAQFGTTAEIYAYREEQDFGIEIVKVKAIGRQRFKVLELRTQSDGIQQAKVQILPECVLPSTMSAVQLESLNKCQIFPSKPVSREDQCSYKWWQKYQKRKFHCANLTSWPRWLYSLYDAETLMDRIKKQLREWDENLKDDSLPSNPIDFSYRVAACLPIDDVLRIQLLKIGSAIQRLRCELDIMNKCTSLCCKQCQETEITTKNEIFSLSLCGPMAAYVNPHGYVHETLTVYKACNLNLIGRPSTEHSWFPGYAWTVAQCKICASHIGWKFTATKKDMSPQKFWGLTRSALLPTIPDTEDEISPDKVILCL
# MEASUREMENT_DESCRIPTION: PROTAC activity at PTP1B/CRBN in insulin treated human HepG2 cells assessed as protein degradation at 500 nM incubated for 48 hrs by Western blot analysis relative to control
# Format: cell-based
QUANTITY: Activity (%)

Examples with answers:
COMPOUND	QUANTITY	SCALE_UNIT	READOUT_NUMBER
O=C1CCC(N2C(=O)c3cccc(NC(=O)CCCCCOCCOCCCCCCNC(=O)c4cccc(NC(=O)CSc5nc6ccccc6[nH]5)c4)c3C2=O)C(=O)N1 (stereo not given)	Activity	%	13
C[C@H]1[C@H](C)CC[C@]2(C(=O)NCCCCCCOCCOCCOCC(=O)Nc3cccc4c3C(=O)N(C3CCC(=O)NC3=O)C4=O)CC[C@]3(C)C(=CC[C@@H]4[C@@]5(C)CC[C@H](O)C(C)(C)[C@@H]5CC[C@]43C)[C@H]12 (stereo not given in full)	Activity	%	53
C[C@H]1[C@H](C)CC[C@]2(C(=O)NCCCOCCCCOCCCNc3cccc4c3C(=O)N(C3CCC(=O)NC3=O)C4=O)CC[C@]3(C)C(=CC[C@@H]4[C@@]5(C)CC[C@H](O)C(C)(C)C5CC[C@]43C)[C@H]12 (stereo not given in full)	Activity	%	54

1. CC1(C)CC[C@]2(C(=O)NCCCCCCNc3cccc4c3C(=O)N(C3CCC(=O)NC3=O)C4=O)CC[C@]3(C)C(=CC[C@@H]4[C@@]5(C)CC[C@H](O)C(C)(C)[C@@H]5CC[C@]43C)[C@@H]2C1 (stereo not given in full)
2. C[C@H]1[C@H](C)CC[C@]2(C(=O)NCCCCCCNc3cccc4c3C(=O)N(C3CCC(=O)NC3=O)C4=O)CC[C@]3(C)C(=CC[C@@H]4[C@@]5(C)CC[C@H](O)C(C)(C)[C@@H]5CC[C@]43C)[C@H]12 (stereo not given in full)
**Q:** I'm curious whether 1 or 2 has the smaller Activity number. Which is it? Please reply using the label of the selected record.
**A:** 2

---

# SYSTEM_UNDER_TEST: Protein cereblon/Tyrosine-protein phosphatase non-receptor type 1 (Homo sapiens, UniProt P18031+Q96SW2)
# MEASUREMENT_DESCRIPTION: PROTAC activity at PTP1B/CRBN in insulin treated human HepG2 cells assessed as protein degradation at 625 nM incubated for 72 hrs by Western blot analysis relative to control
# Type: cell-based
QUANTITY: Activity (%)

COMPOUND	SCALE_UNIT	READOUT_NUMBER
C[C@H]1[C@H](C)CC[C@]2(C(=O)NCCCCCCOCCOCCOCC(=O)Nc3cccc4c3C(=O)N(C3CCC(=O)NC3=O)C4=O)CC[C@]3(C)C(=CC[C@@H]4[C@@]5(C)CC[C@H](O)C(C)(C)[C@@H]5CC[C@]43C)[C@H]12 (stereo not given in full)	%	49
CC1(C)CC[C@]2(C(=O)NCCCOCCCCOCCCNc3cccc4c3C(=O)N(C3CCC(=O)NC3=O)C4=O)CC[C@]3(C)C(=CC[C@@H]4[C@@]5(C)CC[C@H](O)C(C)(C)[C@@H]5CC[C@]43C)[C@@H]2C1 (stereo not given in full)	%	47
CC1(C)CC[C@]2(C(=O)NCCCOCCOCCOCCCNc3cccc4c3C(=O)N(C3CCC(=O)NC3=O)C4=O)CC[C@]3(C)C(=CC[C@@H]4[C@@]5(C)CC[C@H](O)C(C)(C)[C@@H]5CC[C@]43C)[C@@H]2C1 (stereo not given in full)	%	25

a. C[C@H]1[C@H](C)CC[C@]2(C(=O)NCCCCCCOCCOCCOCCOCC(=O)Nc3cccc4c3C(=O)N(C3CCC(=O)NC3=O)C4=O)CC[C@]3(C)C(=CC[C@@H]4[C@@]5(C)CC[C@H](O)C(C)(C)[C@@H]5CC[C@]43C)[C@H]12 (stereo not given in full)
b. CC1(C)CC[C@]2(C(=O)NCCCCCCOCCOCCOCCOCCCCCC(=O)Nc3cccc4c3C(=O)N(C3CCC(=O)NC3=O)C4=O)CC[C@]3(C)C(=CC[C@@H]4[C@@]5(C)CC[C@H](O)C(C)(C)[C@@H]5CC[C@]43C)[C@@H]2C1 (stereo not given in full)
**Q:** Returns: the argument ( a or b ) having the larger Activity. Please reply using the label of the selected record.
**A:** b
(b: 43%, a: 28%)
